Taken from PubChem BioAssay AID588342.

Biological target: Luciferin 4-monooxygenase (Photinus pyralis)
Test: qHTS profiling assay for firefly luciferase inhibitor/activator using purifed enzyme and Km concentrations of substrates (counterscreen for miR-21 project); note: nearly all actives have a fitted effect of over 55% in size
Settings: purified FLuc, luminescence inhibition; series mostly up to 57.5 µM
Screen size: about 360,000 compounds; about 25,000 (6.9%) were called active. Another 9% or so got no clear call; they are omitted. Calls come from the whole dose curve; as a rule, active = well fitted inhibition curve with a large enough effect; inconclusive = small, poorly fitted or top-dose-only effect; inactive = flat fitted curve, though single readings scatter. This excerpt belongs to a sample that is enriched for actives.
// classify into 1 = active, -1 = inactive

| compound | qualitativeLabel |
| --- | --- |
| CC(O)c1cccc(NC(=O)Cc2cccc3ccccc23)c1 (stereo unspecified) | -1 |

Consider now this further compound.
Tell me the recorded outcome of this test for CCOc1ccccc1CNC(=O)Nc1cn(CC(C)C)c(=O)c2ccccc12 .
-1

###

Target: Luciferin 4-monooxygenase (Photinus pyralis) (UniProt P08659)
Sequence (P08659 whole entry, looked up): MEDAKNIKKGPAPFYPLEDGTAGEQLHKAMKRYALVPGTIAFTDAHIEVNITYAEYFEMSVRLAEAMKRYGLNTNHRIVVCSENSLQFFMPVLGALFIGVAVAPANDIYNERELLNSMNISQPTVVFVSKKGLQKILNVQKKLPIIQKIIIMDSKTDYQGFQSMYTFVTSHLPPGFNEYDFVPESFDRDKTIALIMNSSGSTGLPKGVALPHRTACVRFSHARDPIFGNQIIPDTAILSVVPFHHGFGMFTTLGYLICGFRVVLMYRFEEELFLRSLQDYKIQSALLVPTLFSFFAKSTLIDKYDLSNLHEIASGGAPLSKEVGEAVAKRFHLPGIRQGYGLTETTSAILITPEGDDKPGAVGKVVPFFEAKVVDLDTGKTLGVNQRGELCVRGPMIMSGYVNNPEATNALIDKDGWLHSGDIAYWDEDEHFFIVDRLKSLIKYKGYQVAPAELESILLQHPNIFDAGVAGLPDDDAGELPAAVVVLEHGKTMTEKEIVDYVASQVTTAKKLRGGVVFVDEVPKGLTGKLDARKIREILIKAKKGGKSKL
Assay: qHTS profiling assay for firefly luciferase inhibitor/activator using purifed enzyme and Km concentrations of substrates (counterscreen for miR-21 project); note: nearly all actives have a fitted effect of over 55% in size
Details: purified FLuc, luminescence inhibition; series mostly up to 57.5 µM
In all, about 360,000 compounds went through this assay and about 25,000 (6.9%) were called active. Not shown: some 9% with an inconclusive outcome. Calls follow the shape of the dose curve; as a rule, active = well fitted inhibition curve with a large enough effect; inconclusive = small, poorly fitted or top-dose-only effect; inactive = flat fitted curve, though single readings scatter. Only a selection was taken, and actives are over-represented in it overall.
// classify into 1.0 for active, 0.0 for inactive

| molecule | qualitativeLabel |
| --- | --- |
| Cc1ccc(NC2=C(c3ccc(C(F)(F)F)cc3)C(=O)c3ccccc32)cc1F | 0.0 |
| Cc1cccc(N(C(=O)c2ccc(CN3CCOCC3)o2)C(C(=O)NC2CCCCC2)c2ccc(F)cc2)c1 (stereo not given) | 0.0 |
| Cc1cc(C(=O)COc2ccc(Br)cc2F)c(C)n1C1CC1 | 1.0 |

Tell me the recorded outcome of this test for COC(=O)CC1=NN(c2ccccc2)C(=O)C1 .
0.0

Tell me the recorded outcome of this test for CCOC(=O)C1CCCN(C(=O)c2ccc(C)c(S(=O)(=O)N3CCCCC3)c2)C1 (stereo not given) .
0.0

Tell me the recorded outcome of this test for O=C(COc1ccc(Br)cc1F)NC1CCN(Cc2ccccc2)CC1 .
0.0

Tell me the recorded outcome of this test for COc1ccc(N2CCN(S(=O)(=O)CCNC(=O)C(c3ccccc3)c3ccccc3)CC2)cc1 .
0.0

Tell me the recorded outcome of this test for COc1ccc(-n2nc(C(=O)NCCc3ccc(Cl)cc3)c3c4ccccc4n(C)c3c2=O)cc1Cl .
0.0

Tell me the recorded outcome of this test for CCOC(=O)CNC(=O)c1nn(-c2cccc(OC)c2)c(=O)c2ccccc12 .
0.0

Tell me the recorded outcome of this test for CCOC(=O)c1ccc(NC(=O)c2c(NCc3cccc(OC)c3)sc3c2CCC3)cc1 .
0.0

###

Biological target: Luciferin 4-monooxygenase (Photinus pyralis) (UniProt P08659)
Assay: qHTS profiling assay for firefly luciferase inhibitor/activator using purifed enzyme and Km concentrations of substrates (counterscreen for miR-21 project); note: nearly all actives have a fitted effect of over 55% in size
Conditions: purified FLuc, luminescence inhibition; series mostly up to 57.5 µM
Among all 360,000 compounds or so, about 25,000 (6.9%) were called active. Inconclusive results (about 9%) are left out. Calls come from the whole dose curve; as a rule, active = well fitted inhibition curve with a large enough effect; inconclusive = small, poorly fitted or top-dose-only effect; inactive = flat fitted curve, though single readings scatter. The sample holds actives, similar compounds and a random draw of the others, so the mix is not that of the screen.
// classify into Yes for active, No for inactive

Previously resolved entries follow.
| compound | experimentalTarget | qualitativeLabel |
| --- | --- | --- |
| O=C(/C=C/c1c(F)cccc1Cl)Nc1nn[nH]n1 | Luciferin 4-monooxygenase (Photinus pyralis) (UniProt P08659) | No |
| CCOC(=O)c1c(-c2ccc(-c3ccccc3)cc2)csc1NC(=O)CCC(=O)O | Luciferin 4-monooxygenase (Photinus pyralis) (UniProt P08659) | No |

Tell me the recorded outcome of this test for COc1ccc(CCNC(=O)c2c3c(nc4ccccc24)C(=O)N(C2CCCCC2)C3)cc1OC .
No

Tell me the recorded outcome of this test for Cc1nc(N2CCOCC2)c2c(C(=O)NCc3cccc(Cl)c3)c(C)oc2n1 .
No

Tell me the recorded outcome of this test for CCOc1ccccc1NC(=O)C1=C(C)Nc2ncnn2C1c1ccc(NC(C)=O)cc1 (stereo not drawn) .
No

Tell me the recorded outcome of this test for COc1ccc(S(=O)(=O)Nc2cc(C)on2)cc1NC(C)=O .
No

Tell me the recorded outcome of this test for COC(=O)c1ccc(-c2nc3cc(NC(C)=O)ccc3o2)cc1 .
No

Tell me the recorded outcome of this test for CCOC(=O)NC(=O)CSc1nnc(SCCC(=O)O)s1 .
No
